# Method summary: total protein half-life in vivo (active degradation + dilution); higher = more stable protein
# Experimental conditions: wild type E. coli NCM3722; growth: N-lim chemostat; doubling time 12 h
I'd appreciate it if you could supply total protein half-life in vivo values for the items below.
Numbers only, in h.

MHVTLVEINVHEDKVDEFIEVFRQNHLGSVQEEGNLRFDVLQDPEVNSRFYIYEAYKDEDAVAFHKTTPHYKTCVAKLESLMTGPRKKRLFNGLMP
4.86

Please examine the following record next.
// query Sample MIQPISGPPPGQPPGQGDNLPSGTGNQPLSSQQRTSLESLMTKVTSLTQQQRAELWAGIRHDIGLSGDSPLLSRHFPAAEHNLAQRLLAAQKSHSARQLLAQLGEYLRLGNNRQAVTDYIRHNFGQTPLNQLSPEQLKTILTLLQEGKMVIPQPQQREATDRPLLPAEHNALKQLVTKLAAATGEPSKQIWQSMLELSGVKDGELIPAKLFNHLVTWLQARQTLSQQNTPTLESLQMTLKQPLDASELAALSAYIQQKYGLSAQSSLSSAQAEDILNQLYQRRVKGIDPRVMQPLLNPFPPMMDTLQNMATRPALWILLVAIILMLVWLVR — what was its total protein half-life in vivo?
// result 5.38

* * *

# Method summary: total protein half-life in vivo (active degradation + dilution); higher = more stable protein
# Experimental conditions: wild type E. coli NCM3722; growth: C-lim chemostat; doubling time 6 h
I'd appreciate it if you could supply total protein half-life in vivo values for the items below.
Answers are plain numbers, in h.

As a guide, the following entries are already answered.
MSNWPYPRIVAHRGGGKLAPENTLASIDVGAKYGHKMIEFDAKLSKDGEIFLLHDDNLERTSNGWGVAGELNWQDLLRVDAGSWYSKMFKGEPLPLLSQVAERCREHGMMANIEIKPTTGTGPLTGKMVALAARELWAGMTPPLLSSFEIDALEAAQQAAPELPRGLLLDEWRDDWRELTARLGCVSIHLNHKLLNKARVMQLKDAGLRILVYTVNKPQRAAELLRWGVDCICTDAIDVIGPNFTAQ
5.49
MIQSQINRNIRLDLADAILLSKAKKDLSFAEIADGTGLAEAFVTAALLGQQALPADAARLVGAKLDLDEDSILLLQMIPLRGCIDDRIPTDPTMYRFYEMLQVYGTTLKALVHEKFGDGIISAINFKLDVKKVADPEGGERAVITLDGKYLPTKPF
5.48
MSNITIYHNPACGTSRNTLEMIRNSGTEPTIIHYLETPPTRDELVKLIADMGISVRALLRKNVEPYEELGLAEDKFTDDRLIDFMLQHPILINRPIVVTPLGTRLCRPSEVVLEILPDAQKGAFSKEDGEKVVDEAGKRLK [P0AB96]
6.14

Kindly give each listed record's total protein half-life in vivo.
1. MKALARFGKAFGGYKMIDVPQPMCGPEDVVIEIKAAAICGADMKHYNVDSGSDEFNSIRGHEFAGCIAQVGEKVKDWKVGQRVVSDNSGHVCGVCPACEQGDFLCCTEKVNLGLDNNTWGGGFSKYCLVPGEILKIHRHALWEIPDGVDYEDAAVLDPICNAYKSIAQQSKFLPGQDVVVIGTGPLGLFSVQMARIMGAVNIVVVGLQEDVAVRFPVAKELGATAVVNGSTEDVVARCQQICGKDNLGLVIECSGANIALKQAIEMLRPNGEVVRVGMGFKPLDFSINDITAWNKSIIGHMAYDSTSWRNAIRLLASGAIKVKPMITHRIGLSQWREGFDAMVDKTAIKVIMTYDFDE
2. MQKFDTRTFQGLILTLQDYWARQGCTIVQPLDMEVGAGTSHPMTCLRELGPEPMAAAYVQPSRRPTDGRYGENPNRLQHYYQFQVVIKPSPDNIQELYLGSLKELGMDPTIHDIRFVEDNWENPTLGAWGLGWEVWLNGMEVTQFTYFQQVGGLECKPVTGEITYGLERLAMYIQGVDSVYDLVWSDGPLGKTTYGDVFHQNEVEQSTYNFEYADVDFLFTCFEQYEKEAQQLLALENPLPLPAYERILKAAHSFNLLDARKAISVTERQRYILRIRTLTKAVAEAYYASREALGFPMCNKDK

// result
2.23
6.44

// query Sample MFEYLPELMKGLHTSLTLTVASLIVALILALIFTIILTLKTPVLVWLVRGYITLFTGTPLLVQIFLIYYGPGQFPTLQEYPALWHLLSEPWLCALIALSLNSAAYTTQLFYGAIRAIPEGQWQSCSALGMSKKDTLAILLPYAFKRSLSSYSNEVVLVFKSTSLAYTITLMEVMGYSQLLYGRTYDVMVFGAAGIIYLVVNGLLTLMMRLIERKALAFERRN [P0AE30] — what was its total protein half-life in vivo?
// result 5.55
